Molecular target: human GPR40 (Homo sapiens, UniProt O14842)
Construct: expressed in transfected cells; host or cells: CHO cells stably transfected with GPR40 and Aequorin
Sequence (O14842 whole entry): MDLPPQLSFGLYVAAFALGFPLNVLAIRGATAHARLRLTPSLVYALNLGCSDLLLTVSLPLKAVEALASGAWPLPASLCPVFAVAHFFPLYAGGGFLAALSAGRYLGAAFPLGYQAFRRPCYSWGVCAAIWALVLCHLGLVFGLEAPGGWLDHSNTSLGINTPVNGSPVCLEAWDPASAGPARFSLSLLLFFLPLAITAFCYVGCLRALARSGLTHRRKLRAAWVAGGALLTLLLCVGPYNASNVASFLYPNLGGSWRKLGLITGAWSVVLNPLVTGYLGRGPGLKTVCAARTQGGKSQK
Assay: Cell-based aequorin assay
Conditions: CHO cells stably transfected with GPR40 and aequorin; 0.01% HSA
Reported metric: EC50

The molecule listed as COc1ccc(F)c(-c2ccc(COc3ccc4c(c3)C3(CCC4)CCC3C(=O)O)cc2C(OC)C(C)(C)C)c1 (single isomer, unassigned) [Example 155] shows EC50 equal to 100 to 1000 nM

The molecule listed as COc1ccc(F)c(-c2ccc(COc3ccc4c(c3)[C@@]3(CC4)C[C@@H]3C(=O)O)cc2[C@H]2CCCC2(C)C)c1 (single isomer, unassigned) shows EC50 equal to > 10000 nM

The molecule listed as COc1cc(-c2ccc(COc3ccc4c(c3F)[C@]3(CC4)C[C@H]3C(=O)O)cc2[C@@H]2CCCC2(C)C)c(Cl)cn1 (stereo in doubt) shows EC50 equal to 100 to 1000 nM

The molecule listed as COc1ccc(F)c(-c2c(F)cc(COc3ccc4c(c3)[C@]3(CC4)C[C@H]3C(=O)O)cc2[C@@H]2CCCC2(C)C)c1 (single isomer, unassigned) shows EC50 equal to 100 to 1000 nM

The molecule listed as `COc1ccc(F)c(-c2cc(COc3ccc4c(c3)[C@]3(CC4)C[C@@H]3C(=O)O)ccc2C(C)(C)C)c1` shows EC50 equal to > 10000 nM

The molecule listed as COc1ccc(F)c(-c2ccc(COc3ccc4c(c3)[C@]3(CC4)CC[C@@H]3C(=O)O)cc2[C@@H](OC)C(C)(C)C)c1 (single isomer, unassigned) shows EC50 equal to 1000 to 10000 nM

The molecule listed as COc1ccc(F)c(-c2cc(F)c(COc3ccc4c(c3F)[C@]3(CCC4)C[C@H]3C(=O)O)cc2[C@H]2CCCC2(C)C)c1 (single isomer, unassigned) shows EC50 equal to 100 to 1000 nM

The molecule listed as COc1ccc(F)c(-c2ccc(COc3cc(F)c4c(c3F)[C@@]3(CC4)C[C@H]3C(=O)O)cc2[C@H]2CCCC2(C)C)c1 (single isomer, unassigned) shows EC50 equal to > 10000 nM

The molecule listed as COc1ccc(F)c(-c2ccc(COc3ccc4c(c3)[C@]3(CC4)C[C@H]3C(=O)O)cc2[C@@H](OC)C(C)(C)C)c1 (single isomer, unassigned) shows EC50 equal to 10 to 100 nM

The molecule listed as COc1cc(-c2ccc(COc3cc(F)c4c(c3F)[C@]3(CC4)C[C@H]3C(=O)O)cc2[C@@H]2CCCC2(C)C)c(F)cn1 (single isomer, unassigned) [Example 42] shows EC50 equal to 1000 to 10000 nM

The molecule listed as COc1ccc(F)c(-c2ccc(COc3ccc4c(c3F)[C@]3(CCC4)C[C@H]3C(=O)O)cc2[C@@H](OC)C(C)(C)C)c1 (single isomer, unassigned) shows EC50 equal to 10 to 100 nM
